- TEST TARGET: native human M-CSF (in human serum or in MDA-MB-231 conditioned medium) (human), P09603
- Sequence (P09603 33-255): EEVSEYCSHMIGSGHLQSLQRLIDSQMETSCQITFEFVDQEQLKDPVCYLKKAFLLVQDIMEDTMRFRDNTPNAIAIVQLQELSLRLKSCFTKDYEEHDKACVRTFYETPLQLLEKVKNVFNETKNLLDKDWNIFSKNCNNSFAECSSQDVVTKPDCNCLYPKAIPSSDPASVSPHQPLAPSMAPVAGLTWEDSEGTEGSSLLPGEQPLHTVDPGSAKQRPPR
- ASSAY PROCEDURE: cell-based or functional assay
The following binders are shown together with reported IC50, inhibition of M-NFS-60 proliferation induced by human serum (50%) values.
Just the number please, in pM, no unit attached.

Which value of IC50, inhibition of M-NFS-60 proliferation induced by human serum (50%) has been reported for Blanche, IgG1_D265A (antibody, V domains shown) VH: QVQLQQSGPGLVKPSQTLSLTCAISGDSVSSNSAAWNWIRQSPSRGLEWLGRTYYRSKWKHEYAMSVKSRITINPDTSKNQFSLQLNSVTPEDTAVYYCARDRYYYSAFDYWGQGTLVTVSS VL: DIALTQPASVSGSPGQSITISCTGTSSDVGGYNSVSWYQQHPGKAPKLMIYAVSNRPSGVSNRFSGSKSGNTASLTISGLQAEDEADYYCASYDERFTRVFGGGTKLTVLGQ in the records? 18.3

Try this binder next: Servane, IgG1_D265A (antibody, V domains shown) VH: EVQLVESGGGLVKPGGSLRLSCAASGFTFSTYAISWVRQAPGKGLEWVGFIKSKHNSGTTEYAAPVKGRFTISRDDSKNTLYLQMNSLKTEDTAVYYCARMRYYSDLYFDPWGQGTLVTVSS VL: SYELTQPPSVSVSPGQTASITCSGDKLGQKYVSWYQQKPGQSPVLVISQDRKRPSGIPERFSGSNSGNTATLTISGTQAEDEADYYCQTWTHLQWVFGGGTKLTVLGQ 93.2

Try this binder next: Meriem, IgG1_D265A (antibody, V domains shown) VH: QVQLQQSGPGLVKPSQTLSLTCAISGDSVSTSSAAWNWIRQSPSRGLEWLGRTYYRSKWKKEYAQSVKSRITINPDTSKNQFSLQLNSVTPEDTAVYYCARDRYYYSAFDYWGQGTLVTVSS VL: QSALTQPASVSGSPGQSITISCTGTSSDVGGYNSVSWYQQHPGKAPKLIIYAVSNRPSGVSNRFSGSKSGNTASLTISGLQAEDEADYYCASYDERFTRVFGGGTKLTVLGQ 15.1
